test system: KRas Q61H mutant; assay: Ras GTP Binding Domain Inhibition Assay (Ras Superfamily Assay); settings: 20 μM compound, with SOS
observable: KRas Q61H mutant + SOS: % inh.

**Query** Tell me the measured KRas Q61H mutant + SOS: % inh. of `COc1cc(Nc2nc(-c3ccccn3)nn3cc(-c4ccn(C(C)C)n4)c(C)c23)ncn1` , please.
**Result** 0 (0 = 0% inhibition)

====

tested on: KRas G12C mutant; experiment: Ras GTP Binding Domain Inhibition Assay (Ras Superfamily Assay); conditions: 20 μM compound, without SOS
observable: KRas G12C mutant: % inh.

**Query** May I ask what KRas G12C mutant: % inh. has been recorded for Cc1c(-c2ccn(C(C)C)n2)cn2nc(-c3ccccn3)nc(O)c12 [Compound 8] ?
**Result** 0 (0 = 0% inhibition)

**Query** I'd like to know its KRas G12C mutant: % inh.. The molecule in question is COCC1CCN(c2nc(-c3nccn3C)nn3cc(-c4ccn(C(C)C)n4)c(-c4ccccc4)c23)C1.Cl (racemic) [Compound 19]
**Result** 0 (0 = 0% inhibition)
